src = paper doi:10.1101/2023.07.12.548622v2

- targetDesc: hACKR3 (atypical chemokine receptor 3; CXCR7) (Homo sapiens, UniProt P25106, E213Q)
- Sequence (P25106 whole entry E213Q): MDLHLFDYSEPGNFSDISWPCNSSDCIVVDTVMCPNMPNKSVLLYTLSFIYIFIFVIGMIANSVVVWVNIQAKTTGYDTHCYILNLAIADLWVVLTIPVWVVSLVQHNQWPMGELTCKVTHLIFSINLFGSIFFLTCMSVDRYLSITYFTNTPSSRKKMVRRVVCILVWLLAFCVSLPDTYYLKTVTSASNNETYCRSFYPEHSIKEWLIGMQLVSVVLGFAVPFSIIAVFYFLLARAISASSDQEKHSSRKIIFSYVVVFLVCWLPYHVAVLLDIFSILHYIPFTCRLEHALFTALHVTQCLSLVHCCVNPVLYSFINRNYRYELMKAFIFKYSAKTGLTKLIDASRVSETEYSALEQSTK
- methodNotes: homologous [3H]VUF15485 competition binding, HEK293T membranes
pKi: −log10 of the molar value.
observedProperty: pKi

1) COc1cc(C(=O)N(CC[C@H]2CCCN2C)C/C(C)=C/c2ccccc2F)cc(OC)c1OC [VUF15485]; 7.98
